Test system: SNB-75 CNS
TEST_METHOD_NOTES: NCI-60 one-dose screen, 48 h (100 = growth as untreated, 0 = no growth, -100 = all killed)
TEST_CONTEXT: 10 µM unless noted
About 83,000 compounds went through this panel and 20% of them were active in at least one assay; those are over-represented in the sample as a whole.
# growth per record follows
State the answer as a number, implicitly in %.

Here's what some known entries look like.
COc1ccc(/C=C/c2nc3ccccc3c(=O)n2-c2ccc(C#Cc3ccc(C(C)(C)C)cc3)cc2C)c(OC)c1 | 99.4
O=S1(=O)NCCCN1CCNc1nccc(-c2c(-c3cccc(O)c3)nc3sccn23)n1 | 37.9

Form: Entry = COc1cccc(N2CCN(c3ncnc4cc[nH]c34)CC2)c1 | System = SNB-75 CNS | growth = ____
84

What would you report for CSc1ccc(/C=C2\C=C(CC(=O)NCc3ccc(C(=O)c4ccccc4)cc3)c3cc(F)ccc32)cc1 ?
-18.4

What would you report for O=C(CSc1nnc(Cc2ccccc2Nc2c(Cl)cccc2Cl)n1-c1ccccc1)N1N=C(c2ccc3ccccc3c2)CC1c1ccc(Cl)cc1 (stereo not drawn) ?
81

What would you report for CC1(C)CN(CCNc2nccc(-c3c(-c4cccc(O)c4)nc4sccn34)n2)S(=O)(=O)N1 ?
30.5

What would you report for COc1cc(C2CC(c3cccc(Nc4ccnc5cc(Cl)ccc45)c3)=NN2C=O)cc(OC)c1OC (stereo not drawn) ?
-26.9

What would you report for COc1cc(C2CC(c3ccc(Cl)cc3)=NN2C(C)=O)ccc1Oc1nc2c(c(=O)n(C)c(=O)n2C)n1C (stereo not drawn) ?
75
